Hello, the source for this data is patent US8507472B2, in case you need it.

System: Fusarium graminearum
Test: microbe, parasite or virus in culture
Assay type: cell-based
Conditions: 50 μM
% inhibition of the fungal growth of Fusarium graminearum at 50 μM below 80% gives 0; % inhibition of the fungal growth of Fusarium graminearum at 50 μM at or above it gives 1.

>  <compound>
COC(=O)Nc1cc(-c2c(-c3ccsc3)nn3c2CCCC3)ccn1 [Example 67]

>  <label-value>
0

$$$$
>  <compound>
Fc1ccc(-c2nn3c(c2-c2ccncc2)CCCCC3)cc1 [Example 43]

>  <label-value>
1

$$$$
>  <compound>
O=C(Nc1cc(-c2c(-c3ccc(F)cc3)nn3c2CCCC3)ccn1)c1ccsc1 [Example 47]

>  <label-value>
0

$$$$
>  <compound>
O=C(Nc1cc(-c2c(-c3ccc(F)cc3)nn3c2CCCC3)ccn1)C1CC1 [Example 20]

>  <label-value>
1

$$$$
>  <compound>
CC(C)CC(=O)Nc1cc(-c2c(-c3ccc(F)cc3)nn3c2CCCC3)ccn1 [Example 30]

>  <label-value>
1

$$$$
>  <compound>
CC(=O)Nc1cc(-c2c(-c3ccsc3)nn3c2CCCC3)ccn1 [Example 58]

>  <label-value>
1

$$$$
>  <compound>
CC(C)Nc1cc(-c2c(-c3cccc(F)c3)nn3c2CCC3)ccn1 [Example 56]

>  <label-value>
0

$$$$
>  <compound>
CC(C)C(=O)Nc1cc(-c2c(-c3ccsc3)nn3c2CCCC3)ccn1 [Example 63]

>  <label-value>
1

$$$$
>  <compound>
CC(C)(C)OC(=O)Nc1cc(-c2c(-c3ccc(F)cc3)nn3c2CCCC3)ccn1 [Example 16]

>  <label-value>
0

$$$$
>  <compound>
Fc1cccc(-c2nn3c(c2-c2ccncc2)CCC3)c1 [Example 44]

>  <label-value>
0

$$$$
>  <compound>
Cc1ccc(-c2nn3c(c2-c2ccncc2)CCC3)cc1 [Example 41]

>  <label-value>
1

$$$$
>  <compound>
c1csc(-c2nn3c(c2-c2ccncc2)CCCC3)c1 [Example 62]

>  <label-value>
0

$$$$

###

System: Septoria tritici
Assay: Septoria tritici test (wheat)/protective
Assay type: in vivo
Details: in vivo
measured-property: efficacy in %

>  <compound>
CC(C)C(=O)Nc1cc(-c2c(-c3ccc(F)cc3)nn3c2CCC3C)ccn1 (centres unmarked) [Example 77]

>  <assay-result>
100%

$$$$
>  <compound>
CC(C)C(=O)Nc1cc(-c2c(-c3ccsc3)nn3c2CCCC3)ccn1 [Example 63]

>  <assay-result>
100%

$$$$
>  <compound>
CC(C)C(=O)Nc1cc(-c2c(-c3ccccc3)nn3c2CCCC3)ccn1 [Example 29]

>  <assay-result>
71%

$$$$
>  <compound>
C[C@H](O)C(=O)Nc1cc(-c2c(-c3ccc(F)cc3)nn3c2CCCC3)ccn1 [Example 24]

>  <assay-result>
100%

$$$$
>  <compound>
COCC(=O)Nc1cc(-c2c(-c3ccccc3)nn3c2CCCC3)ccn1 [Example 23]

>  <assay-result>
86%

$$$$
>  <compound>
CC(=O)Nc1cc(-c2c(-c3ccsc3)nn3c2CCCC3)ccn1 [Example 58]

>  <assay-result>
89%

$$$$
>  <compound>
CC(C)CC(=O)Nc1cc(-c2c(-c3ccccc3)nn3c2CCCC3)ccn1 [Example 31]

>  <assay-result>
100%

$$$$
>  <compound>
O=C(Nc1cc(-c2c(-c3ccccc3)nn3c2CCCC3)ccn1)C1CC1 [Example 21]

>  <assay-result>
100%

$$$$

###

efficacy in % reference
Tested on: Pyrenophora teres
Test: Pyrenophora teres test (barley)/protective
Type: in vivo
Details: in vivo

>  <molecule>
COC(=O)Nc1cc(-c2c(-c3ccccc3)nn3c2CCCC3)ccn1 [Example 27]

>  <efficacy in % (%)>
90

$$$$
>  <molecule>
CC(=O)Nc1cc(-c2c(-c3cccs3)nn3c2CCCC3)ccn1 [Example 87]

>  <efficacy in % (%)>
90

$$$$
>  <molecule>
CC(C)CNc1cc(-c2c(-c3ccc(F)cc3)nn3c2CCC3)ccn1 [Example 71]

>  <efficacy in % (%)>
80

$$$$
>  <molecule>
CCC(=O)Nc1cc(-c2c(-c3cccs3)nn3c2CCCC3)ccn1 [Example 75]

>  <efficacy in % (%)>
100

$$$$
>  <molecule>
CCC(=O)Nc1cc(-c2c(-c3ccc(F)cc3)nn3c2CCCCC3)ccn1 [Example 96]

>  <efficacy in % (%)>
100

$$$$
>  <molecule>
CCC(=O)Nc1cc(-c2c(-c3ccccc3)nn3c2CCCC3)ccn1 [Example 8]

>  <efficacy in % (%)>
100

$$$$
>  <molecule>
O=C(Nc1cc(-c2c(-c3ccsc3)nn3c2CCCC3)ccn1)C1CC1 [Example 65]

>  <efficacy in % (%)>
95

$$$$

###

Test system: Alternaria solani
Experiment: Alternaria test (tomato)/protective
Assay type: in vivo
Conditions: in vivo
measured-property: efficacy in % (%)

>  <molecule>
Fc1ccc(-c2nn3c(c2-c2ccncc2)CCC3)cc1

>  <measured-property>
efficacy in %

>  <assay-result>
95

$$$$
>  <molecule>
O=C(Nc1cc(-c2c(-c3ccc(F)cc3)nn3c2CCCC3)ccn1)C1CC1

>  <measured-property>
efficacy in %

>  <assay-result>
100

$$$$
>  <molecule>
O=C(Nc1cc(-c2c(-c3ccc(F)cc3)nn3c2CCOC3)ccn1)C1CCC1

>  <measured-property>
efficacy in %

>  <assay-result>
90

$$$$
>  <molecule>
COCC(=O)Nc1cc(-c2c(-c3ccccc3)nn3c2CCCC3)ccn1

>  <measured-property>
efficacy in %

>  <assay-result>
95

$$$$
>  <molecule>
CC(C)CC(=O)Nc1cc(-c2c(-c3ccc(F)cc3)nn3c2CCOC3)ccn1

>  <measured-property>
efficacy in %

>  <assay-result>
90

$$$$
>  <molecule>
CN(C)C=Nc1cc(-c2c(-c3ccccc3)nn3c2CCCC3)ccn1

>  <measured-property>
efficacy in %

>  <assay-result>
95

$$$$
>  <molecule>
CC(C)CC(=O)Nc1cc(-c2c(-c3ccccc3)nn3c2CCCC3)ccn1

>  <measured-property>
efficacy in %

>  <assay-result>
94

$$$$
>  <molecule>
CC1(C)OCCc2c(-c3ccnc(NC(=O)C4CCC4)c3)c(-c3ccc(F)cc3)nn21

>  <measured-property>
efficacy in %

>  <assay-result>
95

$$$$
>  <molecule>
CC(=O)Nc1cc(-c2c(-c3ccc(F)cc3)nn3c2CCCCC3)ccn1

>  <measured-property>
efficacy in %

>  <assay-result>
80

$$$$
>  <molecule>
O=C(Nc1cc(-c2c(-c3ccc(F)cc3)nn3c2COCC3)ccn1)C1CC1

>  <measured-property>
efficacy in %

>  <assay-result>
95

$$$$
>  <molecule>
CC1CC1C(=O)Nc1cc(-c2c(-c3ccc(F)cc3)nn3c2CCOC3)ccn1 (stereo not drawn)

>  <measured-property>
efficacy in %

>  <assay-result>
80

$$$$
>  <molecule>
CC(C)C(=O)Nc1cc(-c2c(-c3ccccc3)nn3c2CCCC3)ccn1

>  <measured-property>
efficacy in %

>  <assay-result>
100

$$$$

###

System: Fusarium graminearum
Format: in vivo
Conditions: in vivo

>  <molecule>
COC(=O)Nc1cc(-c2c(-c3ccccc3)nn3c2CCCC3)ccn1

>  <efficacy in % [%]>
94

$$$$
>  <molecule>
O=C(Nc1cc(-c2c(-c3ccccc3)nn3c2CCCC3)ccn1)C1CC1

>  <efficacy in % [%]>
100

$$$$
>  <molecule>
COCC(=O)Nc1cc(-c2c(-c3ccccc3)nn3c2CCCC3)ccn1

>  <efficacy in % [%]>
88

$$$$
>  <molecule>
CCC(=O)Nc1cc(-c2c(-c3ccc(F)cc3)nn3c2CCC3)ccn1

>  <efficacy in % [%]>
100

$$$$
>  <molecule>
O=C(Nc1cc(-c2c(-c3ccc(F)cc3)nn3c2CCCC3)ccn1)C1CC1

>  <efficacy in % [%]>
94

$$$$
>  <molecule>
C[C@H](O)C(=O)Nc1cc(-c2c(-c3ccc(F)cc3)nn3c2CCCC3)ccn1

>  <efficacy in % [%]>
100

$$$$
>  <molecule>
CCC(=O)Nc1cc(-c2c(-c3ccccc3)nn3c2CCCC3)ccn1

>  <efficacy in % [%]>
88

$$$$
>  <molecule>
O=CNc1cc(-c2c(-c3ccc(F)cc3)nn3c2CCCC3)ccn1

>  <efficacy in % [%]>
93

$$$$
>  <molecule>
CC(C)CC(=O)Nc1cc(-c2c(-c3ccc(F)cc3)nn3c2CCCC3)ccn1

>  <efficacy in % [%]>
88

$$$$
>  <molecule>
CC(C)(O)C(=O)Nc1cc(-c2c(-c3ccccc3)nn3c2CCCC3)ccn1

>  <efficacy in % [%]>
83

$$$$
>  <molecule>
CC(C)(O)C(=O)Nc1cc(-c2c(-c3ccc(F)cc3)nn3c2CCCC3)ccn1

>  <efficacy in % [%]>
83

$$$$
>  <molecule>
O=C(Cc1ccccc1)Nc1cc(-c2c(-c3ccc(F)cc3)nn3c2CCCC3)ccn1

>  <efficacy in % [%]>
100

$$$$
>  <molecule>
CC(C)C(=O)Nc1cc(-c2c(-c3ccc(F)cc3)nn3c2CCCC3)ccn1

>  <efficacy in % [%]>
100

$$$$
>  <molecule>
COCC(=O)Nc1cc(-c2c(-c3ccc(F)cc3)nn3c2CCCC3)ccn1

>  <efficacy in % [%]>
100

$$$$
